experimental.details: qHTS assay to identify small molecule agonists of H2AX (AID 1224845)
condition.details: CHO-K1 phospho-H2AX Ser139 HTRF, 3 h; series mostly up to 154 µM
Records with an inconclusive call do not appear. Calls of active or inactive are those of the source. Calls follow the shape of the dose curve; as a rule, active = well fitted activation curve with a large enough effect in the signal ratio in the repeat runs (not every such curve was filed as active); inconclusive = weak or mixed curves; inactive = flat fitted curve, though single readings scatter; the % refers to the signal ratio.
Choose one outcome from this list and give only that: active, inactive

[Q] Recorded call for CC(C)(C)NCC(O)c1ccccc1Cl (stereo unspecified) ?
[A] inactive

[Q] Recorded call for CC(C)(c1ccccc1)c1cc(-n2nc3ccccc3n2)c(O)c(C(C)(C)c2ccccc2)c1 ?
[A] inactive

[Q] Recorded call for CON(C)C(=O)Nc1ccc(Cl)cc1 ?
[A] inactive

[Q] Recorded call for O=C([O-])c1ccccn1.O=C([O-])c1ccccn1.O=C([O-])c1ccccn1.[Cr+3] ?
[A] inactive

Data origin: PubChem BioAssay (Tox21)
